Target: Histamine H2 receptor (Homo sapiens, UniProt P25021)
Sequence (P25021 whole entry): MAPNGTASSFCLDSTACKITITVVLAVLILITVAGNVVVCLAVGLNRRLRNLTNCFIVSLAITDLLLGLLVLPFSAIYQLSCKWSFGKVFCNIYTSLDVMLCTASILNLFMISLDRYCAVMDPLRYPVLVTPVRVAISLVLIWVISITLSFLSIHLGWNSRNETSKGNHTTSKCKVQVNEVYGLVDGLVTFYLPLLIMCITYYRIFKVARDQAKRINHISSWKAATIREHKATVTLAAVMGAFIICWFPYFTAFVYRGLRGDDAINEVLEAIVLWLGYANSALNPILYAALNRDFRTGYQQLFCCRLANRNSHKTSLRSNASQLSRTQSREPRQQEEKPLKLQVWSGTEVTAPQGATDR
Assay: GPCRScan assay: inhibition of H2
Parameters: radioligand conc. used [nm] 0.02 – 0.05, parental cells Stable HEK
Conditions: read-out: Ki
assay-endpoint: pKi
Please report pKi as the negative decimal logarithm of the molar concentration, giving only the number.

Q: What does the record list as pKi for C=CC(=O)Nc1ccc2[nH]c(=O)n(C3CCN(Cc4ccc(-c5nc6cc[nH]c(=O)c6cc5-c5ccccc5)cc4)CC3)c2c1 [Borussertib] ?
Ans: 6.02

----------
Biological target: Alpha-1B adrenergic receptor (Homo sapiens, UniProt P35368)
Sequence (P35368 whole entry): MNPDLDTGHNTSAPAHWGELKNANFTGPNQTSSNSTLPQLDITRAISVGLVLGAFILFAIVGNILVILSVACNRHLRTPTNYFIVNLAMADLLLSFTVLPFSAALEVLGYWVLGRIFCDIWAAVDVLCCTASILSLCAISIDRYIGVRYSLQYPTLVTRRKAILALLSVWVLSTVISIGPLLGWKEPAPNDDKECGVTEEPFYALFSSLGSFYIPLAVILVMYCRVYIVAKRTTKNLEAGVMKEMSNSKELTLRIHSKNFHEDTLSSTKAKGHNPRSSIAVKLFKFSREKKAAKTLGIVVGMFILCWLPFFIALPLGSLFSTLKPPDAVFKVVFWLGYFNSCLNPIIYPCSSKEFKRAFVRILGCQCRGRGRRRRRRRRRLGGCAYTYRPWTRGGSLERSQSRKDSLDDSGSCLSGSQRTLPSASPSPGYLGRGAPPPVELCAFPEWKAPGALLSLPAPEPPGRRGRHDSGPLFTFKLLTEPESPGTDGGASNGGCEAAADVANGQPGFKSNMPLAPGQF
assay-endpoint: Ki (µM)
Enter your answer as a number in µM; do not include the unit.

Q: Recall the recorded Ki for C=CC(=O)Nc1ccc2[nH]c(=O)n(C3CCN(Cc4ccc(-c5nc6cc[nH]c(=O)c6cc5-c5ccccc5)cc4)CC3)c2c1 [Borussertib] with Alpha-1B adrenergic receptor (Homo sapiens, UniProt P35368) and state it.
Ans: 4.24

----------
Target: Alpha-1A adrenergic receptor (Homo sapiens)
Sequence (P35348 whole entry): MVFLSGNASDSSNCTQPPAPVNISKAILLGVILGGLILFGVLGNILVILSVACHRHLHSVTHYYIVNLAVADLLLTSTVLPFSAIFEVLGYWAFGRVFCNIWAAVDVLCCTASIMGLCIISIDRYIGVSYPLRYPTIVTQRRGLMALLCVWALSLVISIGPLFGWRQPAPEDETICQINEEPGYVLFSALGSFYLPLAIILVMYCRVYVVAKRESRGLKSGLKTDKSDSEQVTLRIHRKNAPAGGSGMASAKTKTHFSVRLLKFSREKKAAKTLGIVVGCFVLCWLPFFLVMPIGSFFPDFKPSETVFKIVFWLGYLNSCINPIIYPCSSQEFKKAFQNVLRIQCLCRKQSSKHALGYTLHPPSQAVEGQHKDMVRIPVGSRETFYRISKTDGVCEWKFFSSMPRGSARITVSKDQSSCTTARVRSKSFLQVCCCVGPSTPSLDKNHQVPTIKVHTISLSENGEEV
assay-endpoint: pKi
Expect pKi as a plain number equal to -log10 of the molar concentration.

Q: Any idea what its pKi is? The compound is C=CC(=O)Nc1ccc2[nH]c(=O)n(C3CCN(Cc4ccc(-c5nc6cc[nH]c(=O)c6cc5-c5ccccc5)cc4)CC3)c2c1
Ans: 5.58
